- testSystem: T1, human Nectin-4 expressed on cells (human, UniProt Q96NY8 32-510)
- T1 construct: On SUM190, SUM185, MDA-MB-468 cells (endogenous) or transfected cells; 31-residue signal peptide left out; also called huN4; wild-type human Nectin-4
- T1 sequence: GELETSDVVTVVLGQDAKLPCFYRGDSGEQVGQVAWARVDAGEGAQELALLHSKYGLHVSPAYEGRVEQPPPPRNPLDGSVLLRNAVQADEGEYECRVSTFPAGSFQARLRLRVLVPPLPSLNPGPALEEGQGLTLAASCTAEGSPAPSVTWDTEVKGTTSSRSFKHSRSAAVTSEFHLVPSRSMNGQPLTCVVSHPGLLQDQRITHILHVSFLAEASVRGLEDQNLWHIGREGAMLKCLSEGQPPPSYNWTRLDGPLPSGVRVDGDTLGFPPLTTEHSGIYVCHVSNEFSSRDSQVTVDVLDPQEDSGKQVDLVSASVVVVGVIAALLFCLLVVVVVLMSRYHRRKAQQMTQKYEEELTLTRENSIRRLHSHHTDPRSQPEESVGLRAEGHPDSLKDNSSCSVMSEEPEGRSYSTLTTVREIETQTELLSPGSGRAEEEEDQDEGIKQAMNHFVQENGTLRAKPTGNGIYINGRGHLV
- assay: flow cytometry on SUM190 cells, MedFI at saturation
reportedEndpoint: Max MedFi (MedFI)
Numbers only, in MedFI.

Before answering, review these 3 worked examples.
H6L1 (antibody, human IgG1, V domains shown, human IgG1 isotype) VH: QVQLVQSGAEVKKPGASVKVSCKASGYIFTSYWMHWVKQRPGQGLEWIGEIDPSDSYTNYNQKFKGRVTMTLDKSTSTTYMELSSLRSEDTAVYYCARGYGNYGDYWGQGTLVTVSS VL: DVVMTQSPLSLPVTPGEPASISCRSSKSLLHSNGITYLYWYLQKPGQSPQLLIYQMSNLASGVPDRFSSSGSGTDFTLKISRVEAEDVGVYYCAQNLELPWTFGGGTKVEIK :: 18300
H4L2 (antibody, human IgG1, V domains shown, human IgG1 isotype) VH: QVQLVQSGAEVKKPGASVKVSCKASGYIFTSYWMHWVKQAPGQGLEWMGEIDPSDSYTNYNQKFKGRVTMTLDKSTSTTYMELSSLRSEDTAVYYCARGYGNYGDYWGQGTLVTVSS VL: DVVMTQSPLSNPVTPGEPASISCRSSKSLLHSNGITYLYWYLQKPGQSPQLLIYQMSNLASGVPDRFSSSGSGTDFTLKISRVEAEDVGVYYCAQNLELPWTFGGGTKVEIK :: 24400
H8L1 (antibody, human IgG1, V domains shown, human IgG1 isotype) VH: QVQLVQSGAEVKKPGASVKVSCKASGYIFTSYWMHWVKQAPGQGLEWIGEIDPSDSYTNYNQKFKGRVTMTLDKSTSTTYMELSSLRSEDTAVYYCARGYGNYGDYWGQGTLVTVSS VL: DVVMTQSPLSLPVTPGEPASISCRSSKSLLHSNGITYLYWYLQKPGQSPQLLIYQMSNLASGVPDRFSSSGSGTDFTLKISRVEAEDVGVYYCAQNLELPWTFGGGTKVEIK :: 17300

# per-item lookup of Max MedFi; items listed below
1. H5L2 (antibody, human IgG1, V domains shown, human IgG1 isotype) VH: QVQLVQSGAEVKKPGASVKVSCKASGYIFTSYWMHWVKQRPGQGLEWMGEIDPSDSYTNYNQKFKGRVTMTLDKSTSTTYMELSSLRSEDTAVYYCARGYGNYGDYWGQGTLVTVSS VL: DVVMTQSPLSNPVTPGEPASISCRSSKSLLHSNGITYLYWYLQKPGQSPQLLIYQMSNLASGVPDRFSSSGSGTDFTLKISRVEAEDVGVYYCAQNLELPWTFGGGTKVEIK
2. H7L3 (antibody, human IgG1, V domains shown, human IgG1 isotype) VH: QVQLVQSGAEVKKPGASVKVSCKASGYIFTSYWMHWVKQRPGQGLEWIGEIDPSDSYTNYNQKFKGRVTLTLDKSTSTTYMELSSLRSEDTAVYYCARGYGNYGDYWGQGTLVTVSS VL: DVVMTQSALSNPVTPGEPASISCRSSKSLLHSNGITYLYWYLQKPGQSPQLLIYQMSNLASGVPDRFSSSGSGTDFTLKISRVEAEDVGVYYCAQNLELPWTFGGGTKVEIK

Output:
[25300, 25000]
